Recorded viability, T/C by entry
- System: SW 1271 complex spheroids, viability
- protocol_details: Anticancer human tumor SW 1271 cell line growth inhibition [LSD1];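 further: spheroids exposed to agents for 7 days before luminescence read; 100% = DMSO vehicle control viability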
- reported_conditions: second compound 1 µM; first compound 0.0316 µM; hits give low values

compound	viability, T/C, %
CC1COCCN1c1cc(C2(S(C)(=N)=O)CC2)nc(-c2ccnc3[nH]ccc23)n1 (stereo not given) + NC1CCC(NC2CC2c2ccccc2)CC1	94.5
CC(C)CC(NC(=O)CNC(=O)c1cc(Cl)ccc1Cl)B1OC(=O)CC(CC(=O)O)(C(=O)O)O1 (stereo not given) + NC1CC1c1ccc(-c2cccc(O)c2)cc1	0.26
COc1cc(Nc2ncc3c(n2)-c2ccc(Cl)cc2C(c2c(F)cccc2OC)=NC3)ccc1C(=O)O + NC1CC1c1ccc(-c2cccc(O)c2)cc1	73.6
CC1(C)CCC(CN2CCN(c3ccc(C(=O)NS(=O)(=O)c4ccc(NCC5CCOCC5)c([N+](=O)[O-])c4)c(Oc4cnc5[nH]ccc5c4)c3)CC2)=C(c2ccc(Cl)cc2)C1 + NC1CC1c1ccc(-c2cccc(O)c2)cc1	91.3
CC(C)c1c(-c2ccccc2)nc2c(C#N)c[nH]n2c1=O + NC1CCC(NC2CC2c2ccccc2)CC1	74.1
